biological target: hERG channel mutant S631A (Homo sapiens, UniProt Q12809, S631A); construct: gene KCNH2; experiment: whole-cell patch clamp, transiently transfected HEK293 cells; inhibition at […]; assay type: cell-based
Sequence (Q12809 whole entry S631A): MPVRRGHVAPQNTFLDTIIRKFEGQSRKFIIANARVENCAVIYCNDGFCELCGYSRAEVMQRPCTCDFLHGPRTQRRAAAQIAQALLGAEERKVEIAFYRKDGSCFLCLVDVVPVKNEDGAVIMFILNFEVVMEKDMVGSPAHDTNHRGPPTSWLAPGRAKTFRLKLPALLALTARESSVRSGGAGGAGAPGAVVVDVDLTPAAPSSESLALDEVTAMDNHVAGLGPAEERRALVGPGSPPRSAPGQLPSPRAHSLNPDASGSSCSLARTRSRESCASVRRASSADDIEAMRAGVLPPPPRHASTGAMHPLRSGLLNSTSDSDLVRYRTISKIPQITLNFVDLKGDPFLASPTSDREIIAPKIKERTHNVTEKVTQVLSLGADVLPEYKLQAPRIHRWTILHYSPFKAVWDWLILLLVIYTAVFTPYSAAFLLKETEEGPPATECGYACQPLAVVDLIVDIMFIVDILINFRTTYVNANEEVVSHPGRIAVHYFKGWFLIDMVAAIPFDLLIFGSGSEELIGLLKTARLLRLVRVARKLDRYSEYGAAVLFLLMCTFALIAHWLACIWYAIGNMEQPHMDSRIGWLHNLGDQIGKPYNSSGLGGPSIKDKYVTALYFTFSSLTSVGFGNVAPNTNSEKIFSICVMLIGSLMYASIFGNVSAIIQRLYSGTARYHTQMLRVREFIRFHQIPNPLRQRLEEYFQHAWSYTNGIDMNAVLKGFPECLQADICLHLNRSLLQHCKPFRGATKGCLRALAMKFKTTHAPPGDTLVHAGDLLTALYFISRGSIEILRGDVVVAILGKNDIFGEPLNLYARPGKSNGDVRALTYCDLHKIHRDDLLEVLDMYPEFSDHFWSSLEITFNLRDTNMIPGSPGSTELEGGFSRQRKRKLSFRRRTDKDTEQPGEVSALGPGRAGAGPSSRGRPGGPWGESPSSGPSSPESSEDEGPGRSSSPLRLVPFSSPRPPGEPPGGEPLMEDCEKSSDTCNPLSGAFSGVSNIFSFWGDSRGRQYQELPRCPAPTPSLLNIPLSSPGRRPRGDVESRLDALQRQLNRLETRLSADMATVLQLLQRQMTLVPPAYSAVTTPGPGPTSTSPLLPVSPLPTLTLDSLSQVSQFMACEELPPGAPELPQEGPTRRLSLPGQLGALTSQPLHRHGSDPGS
PARAMETER MEASURED: inhibition at 100 µM (%)
Supply the numeric figure in %, leaving out any unit text.

INPUT: Return reported inhibition at 100 µM. Input compound: C[C@H]1CC[C@@H]2N(C1)C[C@H]1[C@@H]3C[C@H]4[C@@H](CC(=O)[C@H]5C[C@@H](O)CC[C@@]54C)[C@@H]3CC[C@@H]1[C@]2(C)O [peiminine]
OUTPUT: 12.3

* * *

This listing pairs molecules with measured IC50.
molecular target: hERG channel (human Ether-a-go-go-Related Gene, Kv11.1) (Homo sapiens, UniProt Q12809); construct: gene KCNH2; test: manual whole-cell patch clamp, hERG tail currents in stably expressing HEK293 cells; assay type: cell-based
Sequence (Q12809 whole entry): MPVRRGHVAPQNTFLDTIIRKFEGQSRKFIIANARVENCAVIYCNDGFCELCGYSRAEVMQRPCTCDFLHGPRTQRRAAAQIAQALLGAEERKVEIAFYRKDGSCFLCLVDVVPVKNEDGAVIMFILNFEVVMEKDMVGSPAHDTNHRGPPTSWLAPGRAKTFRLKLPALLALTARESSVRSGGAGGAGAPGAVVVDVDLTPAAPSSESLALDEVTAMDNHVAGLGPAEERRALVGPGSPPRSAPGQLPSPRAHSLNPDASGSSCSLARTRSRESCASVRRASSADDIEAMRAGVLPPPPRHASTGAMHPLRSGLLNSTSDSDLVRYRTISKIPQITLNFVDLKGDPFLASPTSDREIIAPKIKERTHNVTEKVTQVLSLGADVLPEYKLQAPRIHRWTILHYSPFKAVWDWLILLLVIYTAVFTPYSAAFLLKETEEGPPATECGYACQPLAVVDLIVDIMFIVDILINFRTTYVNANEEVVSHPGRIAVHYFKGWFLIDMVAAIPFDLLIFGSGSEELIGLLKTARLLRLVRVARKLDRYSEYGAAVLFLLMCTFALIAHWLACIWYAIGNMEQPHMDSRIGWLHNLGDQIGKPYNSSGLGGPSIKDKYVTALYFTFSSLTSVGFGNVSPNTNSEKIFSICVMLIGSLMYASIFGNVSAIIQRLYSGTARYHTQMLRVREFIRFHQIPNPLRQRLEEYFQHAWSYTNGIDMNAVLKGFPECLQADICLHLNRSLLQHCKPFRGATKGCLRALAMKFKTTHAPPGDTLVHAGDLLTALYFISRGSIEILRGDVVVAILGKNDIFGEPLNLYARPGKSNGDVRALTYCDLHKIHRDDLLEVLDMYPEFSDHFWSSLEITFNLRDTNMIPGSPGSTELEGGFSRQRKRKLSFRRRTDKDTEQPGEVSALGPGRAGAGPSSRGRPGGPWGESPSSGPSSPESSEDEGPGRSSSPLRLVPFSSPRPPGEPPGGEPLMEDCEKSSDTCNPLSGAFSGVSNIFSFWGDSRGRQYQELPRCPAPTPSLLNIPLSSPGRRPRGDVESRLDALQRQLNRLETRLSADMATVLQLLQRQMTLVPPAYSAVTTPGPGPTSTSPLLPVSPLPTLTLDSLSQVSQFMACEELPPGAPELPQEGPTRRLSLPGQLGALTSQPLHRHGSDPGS
Supply the numeric figure in µM, leaving out any unit text.

C[C@H]1CC[C@@H]2N(C1)C[C@H]1[C@@H]3C[C@H]4[C@@H](C[C@H](O)[C@H]5C[C@@H](O)CC[C@@]54C)[C@@H]3CC[C@@H]1[C@]2(C)O 26.1

Proceeding to the next molecule to report its IC50.
INPUT: Return reported IC50. Input molecule: "C[C@H]1CC[C@@H]2N(C1)C[C@H]1[C@@H]3C[C@H]4[C@@H](CC(=O)[C@H]5C[C@@H](O)CC[C@@]54C)[C@@H]3CC[C@@H]1[C@]2(C)O"
OUTPUT: 36.8

Where do the numbers come from? From paper PMC12526275.
